Measurement Notes: NCI Yeast Anticancer Drug Screen. Data for the bub3 strain (AID 167)
Measurement Parameters: S. cerevisiae bub3 mutant strain, at 1.2 µM, stronger effect = higher value
Description: Growth inhibition of yeast strains with defined genetic alterations is measured as a screen for potential anti-cancer activity. Selected strains with alterations in DNA damage repair or cell cycle control were exposed to compounds and growth inhibition was measured relative to vehicle treated controls. The strain used in this assay is bub3
This is part of a sample that, as a whole, favours compounds with a hit. Of some 79,000 tested, about 15% had one in any assay. The source made the active and inactive calls. Rule as the data show it: active = growth inhibition above about 70%; inactive = the rest.
# growth inhibition annotations
Readout Kind: growth inhibition

[[record]]
compound = "Clc1cccc(C(Nc2nncs2)Nc2nncs2)c1Cl"
readout_kind = "growth inhibition"
result_value = "0% (inactive)"

[[record]]
compound = "O=C1C=CC(=C(c2ccccc2)c2ccccc2)c2ccccc21"
readout_kind = "growth inhibition"
result_value = "0% (inactive)"

[[record]]
compound = "O=c1ssc2ncccc12"
readout_kind = "growth inhibition"
result_value = "2% (inactive)"

[[record]]
compound = "CCCCCCCCCCCCCCCCCCNC"
readout_kind = "growth inhibition"
result_value = "12% (inactive)"

[[record]]
compound = "N#CSc1ccc(S(N)(=O)=O)cc1"
readout_kind = "growth inhibition"
result_value = "-23% (inactive)"

[[record]]
compound = "O=C1NC(=O)C2C3C=CC(C3)C12 (stereo unspecified)"
readout_kind = "growth inhibition"
result_value = "-5% (inactive)"

[[record]]
compound = "O=C(OCCN1CCCCCC1)C(c1ccsc1)C1CCCCC1 (stereo unspecified)"
readout_kind = "growth inhibition"
result_value = "4% (inactive)"

[[record]]
compound = "O=Cc1cccc2ccc3ccccc3c12"
readout_kind = "growth inhibition"
result_value = "-7% (inactive)"

[[record]]
compound = "CCCCCCCCCCCCCC[N+](C)(CC(=O)[O-])Cc1ccccc1 (stereo unspecified)"
readout_kind = "growth inhibition"
result_value = "-1% (inactive)"

[[record]]
compound = "Cc1c(C2=C(Br)C(=O)N(C)C2=O)c(=O)n(C)c(=O)n1C"
readout_kind = "growth inhibition"
result_value = "1% (inactive)"

[[record]]
compound = "COc1ccc(Br)c(C(=O)Sc2nnnn2-c2cccc(Cl)c2)c1"
readout_kind = "growth inhibition"
result_value = "13% (inactive)"

[[record]]
compound = "BrCC[P+](c1ccccc1)(c1ccccc1)c1ccccc1"
readout_kind = "growth inhibition"
result_value = "-70% (inactive)"

[[record]]
compound = "CCCCCCCC1(N=[N+]=[N-])C(=O)c2ccccc2N(C)C1=O (stereo unspecified)"
readout_kind = "growth inhibition"
result_value = "-9% (inactive)"

[[record]]
compound = "COc1cc(C2SCC(=O)N2c2nnc(C(F)(F)F)s2)cc(OC)c1OC (stereo unspecified)"
readout_kind = "growth inhibition"
result_value = "6% (inactive)"

[[record]]
compound = "O=C(O)C1OC1(c1cccc(Cl)c1)c1ccccc1Cl (stereo unspecified)"
readout_kind = "growth inhibition"
result_value = "0% (inactive)"

[[record]]
compound = "CC(=O)Cc1ccc[cH-]1.[Fe+2].c1cc[cH-]c1"
readout_kind = "growth inhibition"
result_value = "-4% (inactive)"

[[record]]
compound = "COc1ccc2c(c1)C(=O)c1ccccc1C2"
readout_kind = "growth inhibition"
result_value = "42% (inactive)"

[[record]]
compound = "O=Nc1cccnc1N=O"
readout_kind = "growth inhibition"
result_value = "9% (inactive)"

[[record]]
compound = "CC(/C=C/c1ccc2c(c1)OCO2)[N+](=O)[O-] (stereo unspecified)"
readout_kind = "growth inhibition"
result_value = "23% (inactive)"

[[record]]
compound = "S=C(S)NN1CCOCC1"
readout_kind = "growth inhibition"
result_value = "69% (inactive)"

[[record]]
compound = "CCCN(CCC)CC(O)c1cc(-c2ccc(Cl)cc2)nc2c(C)c(Cl)ccc12 (stereo unspecified)"
readout_kind = "growth inhibition"
result_value = "-5% (inactive)"

[[record]]
compound = "O=C(Nc1ccccc1)OCCc1ccc(Cl)c(Cl)c1"
readout_kind = "growth inhibition"
result_value = "-1% (inactive)"

[[record]]
compound = "OC1CCCc2c1cc1ccc3cccc4ccc2c1c34 (stereo unspecified)"
readout_kind = "growth inhibition"
result_value = "-11% (inactive)"

[[record]]
compound = "CCOC(=O)c1cnc2c(C(F)(F)F)cccc2c1N=[N+]=[N-]"
readout_kind = "growth inhibition"
result_value = "-2% (inactive)"

[[record]]
compound = "CCCCCCCCCCC1CCC(=O)O1 (stereo unspecified)"
readout_kind = "growth inhibition"
result_value = "-3% (inactive)"

[[record]]
compound = "CC1(Cl)CC(O)C2(CC1Br)C1(C)OC1C1OC1(Br)C2(C)C (stereo unspecified)"
readout_kind = "growth inhibition"
result_value = "-15% (inactive)"


====

Measurement Notes: NCI Yeast Anticancer Drug Screen. Data for the rad50 strain (AID 155);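 also: 0% = growth of vehicle-only cultures of the same strain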
Measurement Parameters: S. cerevisiae rad50 strain growth inhibition; at 3.7 µM; stronger effect = higher value
About 79,000 compounds went through this panel and 15% of them were active in at least one assay; those are over-represented in the sample as a whole.
Decide by growth inhibition: equal to or exceeding 10% means true, less means false.

[[record]]
compound = "OCC(Cn1cncn1)(c1ccc(F)cc1F)n1cncn1 (configuration not stated)"
class = "true"

[[record]]
compound = "CC1=NN(c2cccc(Cl)c2)C(=O)C1"
class = "false"

[[record]]
compound = "C=CC(C)(O)CCC1C(=C)C(O)CC2C(C)(C)CCCC12C (configuration not stated)"
class = "true"

[[record]]
compound = "CCCCc1cc(O)ccc1O"
class = "true"

[[record]]
compound = "CC(C)C1=CCC2C(=C1)CCC1C(C)(C(=O)O)CCCC21C (configuration not stated) (tested in a mixture with another compound)"
class = "true"

[[record]]
compound = "Cc1cc(I)ccc1N"
class = "false"

[[record]]
compound = "NC(N)=N/N=C\\c1c2ccccc2cc2ccccc12"
class = "false"


====

Measurement Notes: NCI Yeast Anticancer Drug Screen. Data for the mgt1 strain (AID 153)
Measurement Parameters: S. cerevisiae mgt1 mutant growth inhibition; at 33.0 µM
The panel holds about 79,000 compounds, 15% with a hit somewhere; the sample as a whole holds those more often. Activity calls are given as the source filed them. Rule as the data show it: active = growth inhibition above about 70%; inactive = the rest.
Possible outcomes: active, inactive

[[record]]
compound = "CN1c2ccc(Cl)cc2C(=O)NC1c1ccc([N+](=O)[O-])s1 (stereo unspecified)"
class = "active"

[[record]]
compound = "CC(=O)ON1C(=O)c2cccc3cccc(c23)C1=O"
class = "active"

[[record]]
compound = "CCCCN(CCCC)CCSc1ccc(Cl)cc1"
class = "inactive"

[[record]]
compound = "CC(C)c1ccccc1NC(=O)/C(Cl)=C(\\Cl)C(=O)O"
class = "inactive"

[[record]]
compound = "CCc1ccc(NS(=O)(=O)c2ccccc2)c([N+](=O)[O-])c1"
class = "inactive"

[[record]]
compound = "COc1cc2c(cc1[N+](=O)[O-])C(=O)C(Br)(Br)CCC2"
class = "active"

[[record]]
compound = "CCOC(=O)c1cnc2c(C(F)(F)F)cccc2c1N=[N+]=[N-]"
class = "inactive"

[[record]]
compound = "O=[N+]([O-])c1ccc2c(c1)C(N1CCN(CCO)CC1)Cc1ccc(F)cc1S2 (stereo unspecified)"
class = "inactive"

[[record]]
compound = "Cc1ccc(Cl)c2[nH]c(-c3ccccc3)cc(=O)c12"
class = "inactive"

[[record]]
compound = "O=C1CSC(/C=C/c2ccccc2)N1c1ccc(-c2ccc(-n3c(-c4ccccc4)nc4ccccc4c3=O)cc2)cc1 (stereo unspecified)"
class = "inactive"

[[record]]
compound = "COc1cc(C2SCC(=O)N2c2ccc(-c3ccc(-n4c(-c5ccccc5)nc5ccccc5c4=O)cc3)cc2)cc(OC)c1OC (stereo unspecified)"
class = "inactive"


====

Measurement Notes: NCI Yeast Anticancer Drug Screen. Data for the wt1 strain (AID 149);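 also: 0% = growth of vehicle-treated wt1 cultures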
Measurement Parameters: S. cerevisiae wt1 strain (SPY 50644) growth inhibition; at 33.0 µM
Protocol: Growth inhibition of yeast strains with defined genetic alterations is measured as a screen for potential anti-cancer activity. Selected strains with alterations in DNA damage repair or cell cycle control were exposed to compounds and growth inhibition was measured relative to vehicle treated controls. The strain used in this assay is wt1
The panel holds about 79,000 compounds, 15% with a hit somewhere; the sample as a whole holds those more often. Activity calls are given as the source filed them. No stated cut-off is given here; in the data, active means growth inhibition above about 70%; inactive means the rest.
Possible outcomes: 1 (active), -1 (inactive)

[[record]]
molecule = "O=C1c2ccccc2C(=O)c2c(NC3CCCCC3)ccc(Nc3ccc(S(=O)(=O)O)cc3)c21"
class = -1

[[record]]
molecule = "CCC[CH2][Ge]([CH2]CCC)([CH2]CCC)[O]C(=O)C(OC)c1ccccc1 (stereo unspecified)"
class = -1

[[record]]
molecule = "Cn1c(=O)c2ccccc2c2ccccc21"
class = -1

[[record]]
molecule = "CC(C)(Br)C(=O)/C=C/c1ccc(Cl)c(Cl)c1"
class = -1

[[record]]
molecule = "CN1c2ccc(Cl)cc2C(=O)NC1c1ccc([N+](=O)[O-])s1 (stereo unspecified)"
class = 1

[[record]]
molecule = "NCCNc1ccc(NCCN)c2c1C(=O)c1c(O)ccc(O)c1C2=O"
class = 1

[[record]]
molecule = "N#CN=Nc1cc(Cl)c(N=NC#N)cc1Cl"
class = -1

[[record]]
molecule = "O=C(N=Nc1ccccc1Cl)NNc1ccccc1Cl"
class = -1

[[record]]
molecule = "CCN(CC)CCNc1ccc([N+](=O)[O-])c2nc3ccc(OC)cc3c(N)c12"
class = -1

[[record]]
molecule = "O=C(COC(=O)c1cc(O)c(O)c(O)c1)c1ccc(-c2ccccc2)cc1"
class = -1

[[record]]
molecule = "CC(C)NC(=O)OCc1c(COC(=O)NC(C)C)c(-c2ccc(Cl)c(Cl)c2)n2c1CCC2"
class = -1

[[record]]
molecule = "COc1cc(C2c3cc4c(cc3OC(Nc3ccccc3)C2C)OCO4)cc(OC)c1O (stereo unspecified)"
class = -1

[[record]]
molecule = "Cc1ccc(Cl)c2[nH]c(-c3ccccc3)cc(=O)c12"
class = -1

[[record]]
molecule = "c1ccc2c(c1)sc1nc3ccncc3nc12"
class = -1

[[record]]
molecule = "Cc1ccc(N)c(S)c1"
class = 1

[[record]]
molecule = "C/C(=N\\O)C1CC2C=C(C#N)C1N(Cc1ccccc1)C2 (stereo unspecified)"
class = -1


Where do these numbers come from? They come from PubChem BioAssay (NCI).
